Target: human PRMT6 (Homo sapiens)
Sequence (Q96LA8 with tags, fused parts or gaps): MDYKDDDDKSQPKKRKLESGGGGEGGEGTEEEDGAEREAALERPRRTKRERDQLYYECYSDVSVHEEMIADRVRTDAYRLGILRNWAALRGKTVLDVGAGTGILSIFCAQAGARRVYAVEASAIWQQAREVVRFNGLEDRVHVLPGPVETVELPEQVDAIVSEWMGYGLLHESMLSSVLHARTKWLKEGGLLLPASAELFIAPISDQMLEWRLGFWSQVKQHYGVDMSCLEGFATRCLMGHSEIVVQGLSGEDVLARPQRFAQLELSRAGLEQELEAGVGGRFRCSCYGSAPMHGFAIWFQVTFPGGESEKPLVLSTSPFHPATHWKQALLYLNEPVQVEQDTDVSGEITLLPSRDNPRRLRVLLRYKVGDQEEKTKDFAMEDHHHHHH
Assay: biochemical
Settings: single experiment or average of multiple experiments; read-out: PRMT6 biochemical evaluation (numerical)
Recorded IC50 by entry
Readout name: IC50 (µM)

CNCCN(C)Cc1n[nH]c2ccc(OC(C)C)cc12 : 0.107
CNCCN(C)Cc1n[nH]c2cccc(OCCC(C)C)c12 : 0.135
CNCCN(C)Cc1n[nH]c2cccc(OCCCC(O)CO)c12 (stereo not shown) : 0.145
CCOc1ccc2[nH]nc(CN(C)CCNC)c2c1 : 0.164
CNCCN(C)Cc1n[nH]c2ccc(C3=CCCCC3)cc12 : 0.0656
CNCCN(C)Cc1n[nH]c2ccc(OCc3ccc(C(C)=O)cc3)cc12 : 0.0966
CNCCN(C)Cc1n[nH]c2ccc(Oc3ccccc3)cc12 : 0.125
